target: 28 common HLA alleles (27 from the reference set plus DPB1*03:01), purified MHC molecules; experiment: competition assay, inhibition of radiolabeled ligand binding to purified HLA class II; bound = IC50 <1000 nM
MEASURED_PARAMETER: No. of HLA-II alleles bound (alleles)

[[record]]
binder = "ILFSYFQDLVITLPF [APOB peptide 17 (…)]"
recorded_number = 17

[[record]]
binder = "YKKLRTSSFALNLPT [APOB peptide 16 (…)]"
recorded_number = 21

[[record]]
binder = "GKIDFLNNYALFLSP [APOB peptide 14 (…)]"
recorded_number = 23

[[record]]
binder = "FLHYIFMENAFELPT [APOB peptide 3 (…)]"
recorded_number = 24

[[record]]
binder = "LIINWLQEALSSASL [APOB peptide 11 (…)]"
recorded_number = 17


// data source = patent US20260000710A1
